These data points were gathered from ChEMBL document CHEMBL1157210.

organism: Rattus norvegicus; assay: Activity at rat GABAA alpha-1-beta-2-gamma-2L receptor expressed in Xenopus laevis assessed as ratio of current in treated to non-treated oocyte at 0.1 uM by electrophysiology
property.label: Ratio

INSERT INTO assay_data (smiles_entry, recorded_value) VALUES
  ('CC(=O)[C@@H]1CC[C@H]2[C@@H]3CC[C@H]4C[C@@H](O)CC[C@@]4(C)[C@H]3CC[C@@]12C', 1.28),
  ('C[C@]12CC[C@@H](O)C[C@@H]1CC[C@@H]1[C@@H]2CC[C@@]2(C)[C@H]1CC[C@@]21CO1', 3.11),
  ('C[C@]12CC[C@@H](O)C[C@@H]1CC[C@@H]1[C@@H]2CC[C@]2(C)C(=O)CC[C@@H]12', 0.97),
  ('C[C@@]12CC[C@H](O)C[C@H]1CC[C@@H]1[C@@H]2CC[C@@]2(C)C(=O)CC[C@@H]12', 1.27),
  ('C[C@]12CC[C@@H](O)C[C@H]1CC[C@@H]1[C@@H]2CC[C@]2(C)C(=O)CC[C@@H]12', 0.89);
